Collected set of pKi measured with human VR1 (Homo sapiens, UniProt Q8NER1) across studies.
pKi: −log10 of the molar value.
recorded_metric: pKi

Cc1cn(-c2ccc(NC(=O)CCc3ccc(C(F)(F)F)cc3)cc2C(F)(F)F)cn1    7.50

P = COc1ccc(CCNC(=O)Nc2cccc3cnccc23)cc1
Q = CC(C)(C)c1ccc(/C=C/c2nc3cc(-c4ccccc4C(N)=O)ccc3[nH]2)cc1
q: Between P and Q , whose measured pKi reads higher? Answer format: the label of the selected item.
a: Q

A = O=C(Nc1cccc2cnccc12)NC1CCc2cc(Br)ccc2C1 (stereo not drawn)
B = CC(C)(C)c1ccc(CNC(=O)Nc2cccc3cnccc23)cc1
C = COc1ccc2c(c1)CCC(NC(=S)NCc1ccc(O)c(OC)c1)C2Cc1ccccc1 (stereo not drawn)
D = CC(C)(C)c1ccc(CCC(=O)Nc2ccc(-c3ccc(O)cc3)c(CO)c2)cc1
E = O=C(Nc1cccc2cnccc12)NC1CCc2cc(F)ccc2C1 (stereo not drawn)
q: Please list these molecules in decreasing order of pKi. List the labels according to the requested ordering.
a: B, A, E, D, C

---

Collected set of Ki measured with human VR1 (Homo sapiens, UniProt Q8NER1) across studies.
recorded_metric: Ki (nM)

Examples with answers:
O=C(CCc1ccc(C(F)(F)F)cc1)Nc1ccc(-c2ccncc2)c(C(F)(F)F)c1    99.8
O=C(CCc1ccc(C(F)(F)F)cc1)Nc1ccc(-n2cnc(Cl)c2Cl)cc1    84.4

P = COc1ccc2c(c1)CCC(NC(=O)Nc1cccc3cnccc13)C2Cc1ccccc1 (centres unmarked)
Q = CCc1ccccc1N1CCC(C(=O)Nc2ccc3c(c2)NC(=O)CO3)CC1
R = CC(C)(C)c1ccc(CCC(=O)Nc2ccc(-c3cccc(O)c3)cc2)cc1
q: Please list these compounds in decreasing order of Ki. List the labels according to the requested ordering.
a: Q, R, P
(Q: 125 nM, R: 86 nM, P: 3.37 nM)

---

Collected set of Ki measured with human VR1 (Homo sapiens, UniProt Q8NER1) across studies.
recorded_metric: Ki (nM)

Examples with answers:
O=C(Nc1cccc2cncc(Cl)c12)N[C@H]1CCc2cc(F)ccc2[C@H]1Cc1ccccc1 (relative stereo)    2730
C=CCC1c2ccccc2CCC1NC(=O)Nc1cccc2cnccc12 (stereo not drawn)    15.4
CC(C)(O)c1ccccc1-c1ccc2[nH]c(/C=C/c3ccc(Cl)cc3)nc2c1    6.4
CN(CC1CCCCC1)c1ccc(CNC(=O)Nc2cnc3ccccc3c2)cc1    129
O=C(Nc1cccc2cncc(Cl)c12)NC1CCc2cc(F)ccc2C1Cc1ccccc1 (stereo not drawn)    2700

I = CC(C)(C)c1ccc(CCC(=O)Nc2ccc(-c3ccc(CO)cc3)nc2)cc1
II = Cc1cn(-c2ccc(NC(=O)/C=C/c3ccc(SC(F)(F)F)cc3)cc2C(F)(F)F)cn1
q: Between I and II , whose measured Ki reads higher? Answer format: the label of the selected item.
a: II
(II: 88.7 nM, I: 31.2 nM)

P = COc1ccc2c(c1)CCC(NC(=O)Nc1cccc3cnccc13)C2Cc1cccnc1 (stereo not drawn)
Q = O=C(CCc1ccc(C(F)(F)F)cc1)Nc1ccc(-c2ccnc(F)c2)c(C(F)(F)F)c1
q: Which record shows the lower Ki: the first, P , or the second, Q ? Answer format: the label of the selected item.
a: Q

I = CC(C)(C)c1ccc(CCC(=O)Nc2cnc(-n3cnc(Cl)c3Cl)c(C(F)(F)F)c2)cc1
II = O=C(Nc1cccc2c[n+]([O-])ccc12)NC1CCc2cc(F)ccc2C1Cc1cccc(C(F)(F)F)c1 (single isomer, unassigned)
III = O=C(Nc1cccc2cnccc12)NC1CCc2cc(F)ccc2C1Cc1cccs1 (stereo not drawn)
q: Please list these compounds in decreasing order of Ki. List the labels according to the requested ordering.
a: I, II, III

---

Collected set of Ki measured with human VR1 (Homo sapiens, UniProt Q8NER1) across studies.
recorded_metric: Ki (nM)

Examples with answers:
CC(=O)Nc1ccccc1-c1ccc2[nH]c(/C=C/c3ccc(C(C)(C)C)cc3)nc2c1    31
COc1ccc2c(c1)CCC(NC(=O)Nc1cccc3cnccc13)C2Cc1ccc(OCc2ccccc2)cc1 (stereo not shown)    11.3

P = O=C(NCc1cccc2cnccc12)NC1CCc2cc(F)ccc2C1Cc1ccccc1 (stereo not shown)
Q = O=C(CCc1ccc(C(F)(F)F)cc1)Nc1ccc(-n2ccnc2)c(C(F)(F)F)c1
q: Between P and Q , whose measured Ki reads higher? Answer format: the label of the selected item.
a: Q

---

pKi: −log10 of the molar value.
Collected set of pKi measured with UniProtKB Q8NER1 across studies.
recorded_metric: pKi

Examples with answers:
CC(=O)Nc1ccccc1-c1cc2nc(/C=C/c3ccc(C(C)(C)C)cc3)[nH]c2cc1C(F)(F)F    7.80
CC(C)(C)c1ccc(CCC(=O)Nc2ccc(-c3ccc(O)cc3)c(F)c2)cc1    7.30
NS(=O)(=O)c1ccccc1-c1ccc2[nH]c(/C=C/c3ccc(Cl)cc3)nc2c1    7.74
O=C1COc2ccc(NC(=O)C3CCN(c4ccccc4F)CC3)cc2N1    5.83
Cc1cc(NC(=O)CCc2ccc(C(C)(C)C)cc2)ccc1-c1ccc(O)cc1    7.24

1 = Cc1cc(NC(=O)CCc2ccc(C(C)(C)C)cc2)ccc1-c1ccc(CO)cc1
2 = O=C(Nc1cccc2cnccc12)NC1CCc2cc(F)ccc2C1Cc1cccc(C(F)(F)F)c1 (single isomer, unassigned)
3 = CC(=O)c1ccccc1-c1ccc2[nH]c(/C=C/c3ccc(S(=O)(=O)C(F)(F)F)cc3)nc2c1
q: Please list these compounds in decreasing order of pKi. List the labels according to the requested ordering.
a: 2, 1, 3
(2: 9.30, 1: 7.54, 3: 7.09)

P = COc1ccc2c(c1)CCC(NC(=O)NCc1ccc(O)c(OC)c1)C2Cc1ccccc1 (centres unmarked)
Q = O=C(NCCc1ccc(Cl)c(Cl)c1)Nc1cccc2cnccc12
R = CC(C)(C)c1ccc(CCC(=O)Nc2ccc(-c3ccccc3O)c(CO)c2)cc1
S = CC(C)(C)c1ccc(/C=C/c2nc3cc(-c4ccccc4O)ccc3[nH]2)cc1
T = CC(C)(C)c1ccc(CCC(=O)Nc2ccc(-c3ccccc3O)cc2)cc1
q: Please list these compounds in decreasing order of pKi. List the labels according to the requested ordering.
a: Q, S, T, R, P
(Q: 7.90, S: 7.70, T: 7.30, R: 7.05, P: 6.59)

a = CC(C)(C)c1ccc(CCC(=O)Nc2ccc(-c3ccc(CO)cc3)cc2)cc1
b = CC(C)(C)c1ccc(CCC(=O)Nc2ccc(-c3ncccn3)cc2)cc1
q: Which record shows the lower pKi: the first, a , or the second, b ? Answer format: the label of the selected item.
a: b
(b: 6.67, a: 7.08)

a = CC(=O)Nc1cccc(-c2ccc(NC(=O)CCc3ccc(C(C)(C)C)cc3)cc2)c1
b = O=C1COc2ccc(NC(=O)C3CCN(c4ccc(F)c(F)c4)CC3)cc2N1
q: Between a and b , whose measured pKi reads higher? Answer format: the label of the selected item.
a: b

---

Collected set of Ki measured with human VR1 (Homo sapiens, UniProt Q8NER1) across studies.
recorded_metric: Ki (nM)

COc1ccc2c(c1)CCC(NC(=O)Nc1cccc3cnccc13)C2Cc1ccccc1OC (stereo not drawn)    53.4
CC(C)(C)c1ccc(CNC(=O)Nc2cccc3ccc(O)cc23)cc1    0.12
O=C(CCc1ccc(C(F)(F)F)cc1)Nc1ccc(-n2cnc3ccccc32)c(C(F)(F)F)c1    44.3
Cc1cc(NC(=O)CCc2ccc(C(C)(C)C)cc2)cnc1-n1cnc(Cl)c1Cl    7.4

A = Cc1cc(NC(=O)CCc2ccc(C(C)(C)C)cc2)ccc1-c1ccccc1O
B = COc1ccc2c(c1)CCC(NC(=O)Nc1cccc3cnccc13)C2Cc1cccc(C(F)(F)F)c1 (stereo not drawn)
C = Cc1cc(NC(=O)CCc2ccc(C(C)(C)C)cc2)cnc1-c1cccc(C#N)c1
D = COc1ccc(C(CNC(=O)Nc2cccc3cnccc23)CC2CCCCC2)cc1 (stereo not drawn)
q: Please list these molecules in decreasing order of Ki. List the labels according to the requested ordering.
a: C, A, D, B
(C: 371 nM, A: 15 nM, D: 5.62 nM, B: 2.04 nM)

---

Collected set of Ki measured with human VR1 (Homo sapiens, UniProt Q8NER1) across studies.
recorded_metric: Ki (nM)

Examples with answers:
CC(C)(C)c1csc(CCC(=O)Nc2ccc(-c3ccncc3)cc2)c1    461
O=C(NCc1ccc(Cl)c(Cl)c1)Nc1cccc2cnccc12    8.87
O=C(Nc1cccc2ccc(O)cc12)NC1CCc2cc(F)ccc2C1Cc1ccccc1 (stereo not drawn)    1.44
CC(C)(C)c1ccc(CCC(=O)Nc2ccc(-c3ccc(O)cc3)cc2)cc1    51
CC(C)(C)c1ccc(CCC(=O)Nc2ccc(-c3cccc([N+](=O)[O-])c3)cc2)cc1    145
CC(C)(C)c1ccc(CCC(=O)Nc2ccc(-c3ccncc3)nc2)cc1    93
O=C(Nc1cccc2cnccc12)NC1CCc2cc(F)ccc2C1Cc1ccc(C(F)(F)F)cc1 (stereo not drawn)    0.93

P = O=C(NCc1ccc(F)c(F)c1)Nc1cccc2ccc(O)cc12
Q = Cc1cc(NC(=O)CCc2ccc(C(C)(C)C)cc2)cnc1-n1ccnc1
q: Which record shows the lower Ki: the first, P , or the second, Q ? Answer format: the label of the selected item.
a: P
(P: 7.22 nM, Q: 536 nM)
